Biological target: T1, human MCAM (melanoma cell adhesion molecule) expressed on transfected CHO cells (human, UniProt P43121 24-646)
T1 construct: also called hMCAM; CD146
T1 chain: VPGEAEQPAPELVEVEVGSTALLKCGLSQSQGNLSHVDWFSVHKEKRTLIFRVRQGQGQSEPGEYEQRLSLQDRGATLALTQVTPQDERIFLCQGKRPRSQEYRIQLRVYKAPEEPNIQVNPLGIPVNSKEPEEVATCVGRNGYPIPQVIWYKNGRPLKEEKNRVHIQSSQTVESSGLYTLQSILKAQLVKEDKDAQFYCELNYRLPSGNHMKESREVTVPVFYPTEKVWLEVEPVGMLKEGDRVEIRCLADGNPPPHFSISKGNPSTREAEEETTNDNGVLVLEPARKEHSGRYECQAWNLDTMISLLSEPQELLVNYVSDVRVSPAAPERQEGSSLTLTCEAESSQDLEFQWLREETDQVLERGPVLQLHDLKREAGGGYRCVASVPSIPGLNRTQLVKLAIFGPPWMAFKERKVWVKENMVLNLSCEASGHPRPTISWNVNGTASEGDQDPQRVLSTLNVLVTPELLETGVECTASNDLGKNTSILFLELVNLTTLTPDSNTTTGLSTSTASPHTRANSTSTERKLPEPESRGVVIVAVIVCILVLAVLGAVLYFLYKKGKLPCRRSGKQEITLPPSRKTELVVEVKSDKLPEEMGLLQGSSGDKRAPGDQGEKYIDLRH
Assay: laminin/FACS on hMCAM CHO cells, competitor laminin 411; Expt#2; vs rodent 2120
This section presents binders with their documented fold over rodent (blocking, laminin/FACS) values.
# include the unit after the value

h2120_VH1 + h2120_VL1 (antibody, human IgG1, V domains shown) VH: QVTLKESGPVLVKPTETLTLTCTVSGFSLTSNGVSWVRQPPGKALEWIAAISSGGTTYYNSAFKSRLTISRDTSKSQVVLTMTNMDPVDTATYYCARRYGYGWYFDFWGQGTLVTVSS VL: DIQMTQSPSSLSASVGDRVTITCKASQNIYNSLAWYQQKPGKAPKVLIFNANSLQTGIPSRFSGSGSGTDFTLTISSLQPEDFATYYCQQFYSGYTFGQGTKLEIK ... 3.5 fold
h2120_VH1 + h2120_VL3 (antibody, human IgG1, V domains shown) VH: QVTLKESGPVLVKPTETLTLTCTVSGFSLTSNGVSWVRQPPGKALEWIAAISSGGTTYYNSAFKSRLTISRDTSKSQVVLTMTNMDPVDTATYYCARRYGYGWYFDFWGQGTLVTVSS VL: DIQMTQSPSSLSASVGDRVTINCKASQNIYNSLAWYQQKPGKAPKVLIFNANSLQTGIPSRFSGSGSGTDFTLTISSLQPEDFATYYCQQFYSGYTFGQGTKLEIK ... 2.8 fold

With those in mind, consider the next binder.
Request: Which fold over rodent (blocking, laminin/FACS) is reported for this binder? h2120_VH1 + h2120_VL2 (antibody, human IgG1, V domains shown) VH: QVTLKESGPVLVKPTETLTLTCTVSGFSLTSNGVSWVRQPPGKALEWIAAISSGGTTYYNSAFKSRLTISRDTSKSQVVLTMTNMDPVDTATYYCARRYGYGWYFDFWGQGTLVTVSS VL: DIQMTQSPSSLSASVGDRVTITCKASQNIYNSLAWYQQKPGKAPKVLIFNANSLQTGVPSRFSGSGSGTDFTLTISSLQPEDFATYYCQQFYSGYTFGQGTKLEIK
Response: 12.6 fold

Cited source: patent US20150239980A1
